- protocol.notes: Hydrolysis stability in simulated intestinal fluid
- Type: physicochemical
- details: simulated intestinal fluid, pH 6.85, 37° C.
measurement.kind: half-life (h)
The response must be a number in h with no trailing unit.

Qu. Any idea what its half-life is? The molecule is CSCCC(NC(C)=O)C(=O)Oc1ccc(NC(C)=O)cc1 (racemic) [Compound A]
Ans. 31.5

###

- protocol.notes: in vivo
- details: mouse, po, 500 mg/kg, Serum "free NAPA"
measurement.kind: concentration at 4 h (ng/mL)
Write the number in ng/mL without appending the unit.

Qu. What concentration at 4 h value was documented for this compound, CC(=O)Nc1ccc(O)cc1 [NAPA, N-acetyl-para-aminophenol] ?
Ans. 32000
